molecular target: T1, Anti-PSMA Fab (SEQ ID NOs: 19, 20); test: phage ELISA; biotinylated PSMA Fab on neutravidin plate, bound phage detected with anti-M13-HRP;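 note: crude clonal phage supernatants added, without a wash, to wells pretreated with PSMA antigen in blocking buffer or with blocking buffer only, then briefly incubated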
T1 construct: Biotinylated and captured on neutravidin coated plates in the phage ELISA; also called 006 PSMA Fab
Where no end group is shown, it is not given here.
ATTRIBUTE_MEASURED: Phage binding ELISA, Anti-PSMA Fab signal
Answers are plain numbers.

Sample records with Phage binding ELISA, Anti-PSMA Fab signal:
BINDER: TEKWCIPSWMCEIS (Tested as clonal phage supernatant, with the peptide fused to pIII of the bacteriophage) [Phage-2212]
READING: 1.6
//
BINDER: VPKQCVPEWMCSGF (Tested as clonal phage supernatant, with the peptide fused to pIII of the bacteriophage) [Phage-2218]
READING: 1.59
//
BINDER: LEKWCIPAWMCAVL (cysteine pairing not given here; also: fused to pIII of bacteriophage, Tested as clonal phage supernatant, with the peptide fused to pIII of the bacteriophage) [Phage-2206]
READING: 1.61

Lab note: each binder below needs its Phage binding ELISA, Anti-PSMA Fab signal filled in.
1. QDHWCVPQWMCEML (Tested as clonal phage supernatant, with the peptide fused to pIII of the bacteriophage) [Phage-2209]
2. GHQWCIPQWMCVGL (Tested as clonal phage supernatant, with the peptide fused to pIII of the bacteriophage) [Phage-2221]

[1.61, 1.58]

Lab note: each binder below needs its Phage binding ELISA, Anti-PSMA Fab signal filled in.
1. ALHWCIPEWMCSSM (Tested as clonal phage supernatant, with the peptide fused to pIII of the bacteriophage) [Phage-2208]
2. EVKWCIPSWMCESE (Tested as clonal phage supernatant, with the peptide fused to pIII of the bacteriophage) [Phage-2217]
3. THNWCTPQWMCDGF (Tested as clonal phage supernatant, with the peptide fused to pIII of the bacteriophage) [Phage-2210]
4. GVKWCTPPWMCEVA (Tested as clonal phage supernatant, with the peptide fused to pIII of the bacteriophage) [Phage-2215]

1.61
1.59
1.6
1.59

Lab note: each binder below needs its Phage binding ELISA, Anti-PSMA Fab signal filled in.
1. SENWCIPAWMCSGF (Tested as clonal phage supernatant, with the peptide fused to pIII of the bacteriophage) [Phage-2219]
2. EPKWCTPEWMCLNL (Tested as clonal phage supernatant, with the peptide fused to pIII of the bacteriophage) [Phage-2220]
3. WAQWCTPSWMCEGF (Tested as clonal phage supernatant, with the peptide fused to pIII of the bacteriophage) [Phage-2216]
4. VIPLCSPPWMCFMS (Tested as clonal phage supernatant, with the peptide fused to pIII of the bacteriophage) [Phage-2213]
5. PEKWCIPEWMCDAL (Tested as clonal phage supernatant, with the peptide fused to pIII of the bacteriophage; Read from the row with '-' as the Peptide-180 residue: PEKWCIPEWMCDAL) [Phage-2214]

1.59
1.58
1.59
1.6
1.6

Lab note: each binder below needs its Phage binding ELISA, Anti-PSMA Fab signal filled in.
1. PGKWCIPAWMCSLV (Tested as clonal phage supernatant, with the peptide fused to pIII of the bacteriophage) [Phage-2211]
2. PTKWCIPEWMCSVI (Tested as clonal phage supernatant, with the peptide fused to pIII of the bacteriophage) [Phage-2207]

1. 1.6
2. 1.61
